- Tested on: HT-29 (monolayer culture of a human colon carcinoma)
- protocol.description: Cytotoxic activity screening, HT-29 cells
- Assay type: cell-based
- stated.conditions: HT-29, 72 h, three days of incubation, Crystal Violet, approximate IC50
Record form. Attribute: IC50. Fill in for each entry.
Give the value, in units of µM, as a plain number.

Prompt: I'd like to know its IC50. The molecule in question is CCCCCCCCCC(=O)NC[C@H]1c2c(c(OC(C)=O)c(C)c3c2OCO3)CC2[C@H]3c4c(cc(C)c(OC)c4O)C[C@@H]([C@H](C#N)N21)N3C (stereo partly drawn)
Completion: 0.007

Prompt: And the next one, CCCC(=O)N[C@@H](C)C(=O)NC[C@H]1c2c(c(OC(C)=O)c(C)c3c2OCO3)CC2[C@H]3c4c(cc(C)c(OC)c4O)C[C@@H]([C@H](C#N)N21)N3C (stereo partly drawn) ?
Completion: 0.0005

Prompt: Please do the same for COc1c(C)cc2c(c1O)[C@@H]1C3Cc4c(OC(C)=O)c(C)c5c(c4[C@H](CNC(=O)/C=C/c4ccccc4)N3[C@@H](C#N)[C@H](C2)N1C)OCO5 (stereo partly drawn) as well.
Completion: 0.0001
